src = ChEMBL document CHEMBL5352406

test: Selectivity index, ratio of IC50 for equine serum BuChE to IC50 for CDK9/CyclinT1 (unknown origin)
Please use Criterion met for Selectivity Index under 800 and Criterion not met for everything else, ties included.

[[record]]
structure_smiles = "N[C@H]1CCN(c2c3c(nc4ccc(-c5cc(NC(=O)C6CC6)ncn5)cc24)CCCCC3)C1"
class_name = "Criterion met"


### Prompt In plain terms, does N[C@H]1CCN(c2c3c(nc4ccc(-c5ccnc(NC(=O)C6CCCCC6)c5)cc24)CCCCC3)C1 come in under 800 for Selectivity Index?
### Response Criterion met

### Prompt Please indicate whether the reported Selectivity Index of N[C@H]1CCN(c2c3c(nc4ccc(-c5ccnc(NC(=O)C6CCCC6)c5)cc24)CCCCC3)C1 is strictly below 800.
### Response Criterion met

### Prompt Say whether its Selectivity Index is strictly beneath 800. Entry: N[C@H]1CCN(c2c3c(nc4ccc(-c5ccnc(NC(=O)C6CCC6)c5)cc24)CCCCC3)C1
### Response Criterion met

### Prompt Selectivity Index under 800? Item: N[C@H]1CCN(c2c3c(nc4ccc(-c5ccnc(NC(=O)C6CC6)c5)cc24)CCCCC3)C1
### Response Criterion not met

### Prompt I wonder whether N[C@H]1CCN(c2c3c(nc4ccc(-c5ccnc(NC(=O)C6CC6)c5)cc24)-c2ccccc2CCC3)C1 has Selectivity Index below 800. Can you tell?
### Response Criterion met

### Prompt Consider N[C@@H]1CCN(c2c3c(nc4ccc(-c5ccnc(NC(=O)C6CC6)c5)cc24)CCCCC3)C1 . Does its Selectivity Index lie strictly below 800?
### Response Criterion not met
